Test protocol: Maximum solubility
Assay type: physicochemical
Experimental conditions: pH 7.4, aqueous buffer
Measured endpoint: solubility (mM)
Give bare numbers, in mM.

So what's the measured solubility for this one? [O-][S+]1CCCCS1 (stereo not shown) [S-XL6, 1,2-dithiane-1-oxide]
360

----------
Tested system: wild-type SOD1 (Homo sapiens)
Sequence (P00441 2-154 limits assumed): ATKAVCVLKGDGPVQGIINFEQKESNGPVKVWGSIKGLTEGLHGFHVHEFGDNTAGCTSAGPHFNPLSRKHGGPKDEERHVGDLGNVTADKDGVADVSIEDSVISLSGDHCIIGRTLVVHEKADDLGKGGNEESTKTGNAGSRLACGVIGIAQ
Test protocol: SOD1 cross-linking in Hep G2 cells, SDS-PAGE and western blot
Experimental conditions: Hep G2 cells in PBS buffer, 30 min
Measured endpoint: EC50

Lab note: need EC50 with wild-type SOD1 (Homo sapiens) for entry [O-][S+]1CCCCS1 (stereo not shown) [S-XL6, 1,2-dithiane-1-oxide] , please look it up.
~5 µM

----------
Test protocol: MTT cell viability/cytotoxicity assay
Assay type: cell-based
Experimental conditions: human, Hep G2 cells, 10 µM, read-out: viable cells compared to vehicle control (MTT)
Measured endpoint: viability at 24 h, 10 µM (%)
Answers are plain numbers, in %.

So what's the measured viability at 24 h, 10 µM for this one? [O-][S+]1CCCCS1 (stereo not shown) [S-XL6, 1,2-dithiane-1-oxide]
125

----------
Test protocol: MTT cell viability/cytotoxicity assay
Type: cell-based
Experimental conditions: human, Hep G2 cells, 100 µM, read-out: viable cells compared to vehicle control (MTT)
Measured endpoint: viability at 24 h, 100 µM (%)
Answers are plain numbers, in %.

So what's the measured viability at 24 h, 100 µM for this one? [O-][S+]1CCCCS1 (stereo not shown) [S-XL6, 1,2-dithiane-1-oxide]
102

----------
Test protocol: Relative cell viability of transfected NSC-34 cells
Assay type: cell-based, mouse
Experimental conditions: mouse, NSC-34 cells expressing EGFP-G93A, G93A; 5 uM, 48 h; replicates
Measured endpoint: viability at 48 h, 5 µM (%)
Give bare numbers, in %.

So what's the measured viability at 48 h, 5 µM for this one? [O-][S+]1CCCCS1 (stereo not shown) [S-XL6, 1,2-dithiane-1-oxide]
96

----------
Test protocol: Blood-brain barrier penetration
Format: in vivo, mouse
Experimental conditions: transgenic SOD1^G93A, mouse, brain/blood, subcutaneous, 30 mg/kg
Measured endpoint: log BB at 1 h
One number for each entry.

So what's the measured log BB at 1 h for this one? [O-][S+]1CCCCS1 (stereo not shown) [S-XL6, 1,2-dithiane-1-oxide]
0.02

----------
Test protocol: in vivo
Experimental conditions: C57BL/6, mouse, po
Description: Any clinical abnormalities including but not limited to ruffled fur, unstable gait, severe lethargy, and mortality was observed after dosing. The post-dose washout period was maintained for 48 h for both PO, IV, and SC route of administration.
Measured endpoint: LD50 at 48 h

So what's the measured LD50 at 48 h for this one? [O-][S+]1CCCCS1 (stereo not shown) [S-XL6, 1,2-dithiane-1-oxide]
1000 mg/kg

----------
Test protocol: MTT cell viability/cytotoxicity assay
Format: cell-based
Experimental conditions: human, Hep G2 cells, 150 µM, read-out: viable cells compared to vehicle control (MTT)
Description: The Hep G2 human hepatocarcinoma cell line (American Type Culture Collection, ATCC, Manassas, Virginia, USA) was cultured using EMEM (Eagle’s minimal essential medium, ATCC) supplemented with 10% FBS (fetal bovine serum, ATCC) and 1% penicillin streptomycin as previously described (10,000 units/mL penicillin and 10,000 μg/mL streptomycin, Fisher scientific, Hampton, New Hampshire, USA). The cells were grown and subcultured around 72 h at 37°C, 5% CO2 under controlled humidity. […]
Measured endpoint: viability at 24 h, 150 µM (%)
Answers are plain numbers, in %.

So what's the measured viability at 24 h, 150 µM for this one? [O-][S+]1CCCCS1 (stereo not shown) [S-XL6, 1,2-dithiane-1-oxide]
90
